These data points were gathered from the supplement of paper PMC9170038.

tested on: MS2 coat protein; experiment: apparent KD of MS2 coat protein; designed switch direction (-1 OFF switch, 1 ON switch): -1; higher = weaker reporter binding; details: Eterna round: R95; input ligand: microRNA oligo, concentration not stated
Would you mind telling me the reported apparent KD of MS2 coat protein of each entry?
Numeric answer only, unit nM assumed.

Consider ACGUGAUAUCUGUCGGUGGACAUGAGGAUCACCCAUGUAAGCUUUUUGCCCGUCUUAUAACCCGGUGACAGACCUUC [Orlequla] (puzzle: Sensor v3, turn-off variant 1) . Its measured apparent KD of MS2 coat protein is 340

Consider UAUUAAUGCAAGGAUAUGCUAUUAAUUUAUUUUGCAGAAGGUGCAACAUGAGGAUCACCCAUGUUGGAGGGUAU [JR_E6_Sub028] (puzzle: Exclusion 6) . Its measured apparent KD of MS2 coat protein is 19.3

Consider ACUAGAUGAGGAUAUGCAUAUUUUCGUGUUCUUCUAGGUUAACAUGAGGAUCACCCAUGUAGAAGGCGUCUAUU [Exclusion 2 - 23] (puzzle: Exclusion 2) . Its measured apparent KD of MS2 coat protein is 18.6

Consider GGUGCGUAUGUGAGGAUAUGCUGGUCCUUGGAUCGGCAGAAGGCACAUGAGGAUCACCCAUGUGGUGUCGUUCC [salish99_Bmod_ex4_100] (puzzle: Brourd's mod of Exclusion 4) . Its measured apparent KD of MS2 coat protein is 114

Consider CAGAAACAUGAGGAUCACCCAUGUGAGGAUAUGCGUACGUUGUCCGUAGGCGACGUGCGCAGAAGGCGCAAAGG [Mat - Mod of JL D85] (puzzle: Exclusion 1) . Its measured apparent KD of MS2 coat protein is 59.3

Consider UAAUGCAGGUAAAGAUUCUACAUGAGGAUCACCCAUGUGCUCGUCUUAUAAAGUACUAUCACGAAAGUGAUAGUACA [Mat - Sensor v3 - turn-off var 1 - Eli Mod - D101] (puzzle: Sensor v3, turn-off variant 1) . Its measured apparent KD of MS2 coat protein is 220

Consider UAUACACAUGAGGAUCACCCAUGUGAGGAUAUGUAAAAAAAACCGACGGUUUUUUUUUACAGAAGGCACAUAUA [JR_Exclusion1_Sub026] (puzzle: Exclusion 1) . Its measured apparent KD of MS2 coat protein is 52.5

Consider UUAUAUAGAGUGAGGAUAUGCUGGUCCUUGGAUCAGCAGAAGGCACAUGAGGAUCACCCAUGUAAUAUAAUAUU [Mat - Exclusion 4 - JL Mod - D38] (puzzle: Brourd's mod of Exclusion 4) . Its measured apparent KD of MS2 coat protein is 21.1

Consider UCCUCGUCAGGAUAUCCACGGAAUAGCGGGAUACCGAGCGUGGAGAAGGGACAUGAGGAUCACCCAUGUAAAAU [Edlare] (puzzle: Exclusion 4) . Its measured apparent KD of MS2 coat protein is 24.9

Consider AGUACUAACACGAUAGUGUUAGUACAAUAAGCUUGUGAAACAUGAGGAUCACCCAUGUCCUCAUAAGCUCGUCUUAU [salish99_TOv2_r3_030] (puzzle: Sensor v3, turn-off variant 2) . Its measured apparent KD of MS2 coat protein is 993
